Each entry below carries its recorded melting point.
measured-parameter: melting point

> print(dat)
                                    compound  measured.parameter       reported
 1       COc1cccc(C(=O)Nc2ccc3c(c2)CCC3=O)c1       melting point  203 to 204 °C
 2           COP(=O)(Cc1ccc(-c2ccccc2)cc1)OC       melting point    70 to 71 °C
 3  CCOP(OCC)c1ccccc1P(c1cc(C(C)(C)C)c(OC)c(C(C)(C)C)c1)c1cc(C(C)(C)C)c(OC)c(C(C)(C)C)c1       melting point  104 to 105 °C
 4  O=C(c1ccc(Cl)c([N+](=O)[O-])c1)c1ccc(Cl)c([N+](=O)[O-])c1       melting point  131 to 132 °C
 5  Cc1nc(-c2cnc3[nH]cc(C(=O)N[C@@H](C(=O)N4CC(C#N)C4)C(C)(C)C)c3n2)cn1-c1cccc(F)c1       melting point  171 to 176 °C
 6  CCN(CC)CCOc1ccc(Nc2ncc3c(n2)N(C(C)C)C(=O)N(c2c(Cl)cccc2Cl)C3)cc1       melting point         125 °C
 7    CON(C)C(=O)c1ccc(-c2ccc(CN(C)C)cc2)cc1       melting point    42 to 43 °C
 8  CCCc1cn(C)c2c(=O)[nH]c(-c3cc(S(=O)(=O)N4CCN(CCCOC(C)=O)CC4)ccc3OCC)nc12       melting point  157 to 158 °C
 9                           CCCCSc1nc(O)ns1       melting point          78 °C
10  CC1Cc2ccccc2C(O)(C2CCN(C)CC2)c2ccsc21 (stereo not given)       melting point  177 to 178 °C

* * *

melting point values, listed per item
measured-parameter: melting point

> print(dat)
                         structure.notation  measured.parameter       reported
1                     CCCCCCCCCCc1cc(CO)on1       melting point    55 to 56 °C
2                O=c1[nH]ncc(Cl)c1-c1ccccc1       melting point  193 to 195 °C
3  CCCCCCCCCC(=O)Nc1ccc(S(=O)(=O)Nc2nnc(CC)s2)cc1       melting point  121 to 122 °C
4  CCCCOc1ccc2c(c1)C(N(C)S(C)(=O)=O)=CC(C)(C)O2       melting point  114 to 116 °C

* * *

measured-parameter: melting point

> print(dat)
                                   compound       reported
1  O=C1NC(=O)C(Cc2cc(=O)n(Cc3ccc(Cl)cc3)c3ccccc23)S1 (centres undefined)  142 to 144 °C
2  O=C1COCCN1CCn1c2ccccc2c2c(N3CCCC3)nc(N3CCCC3)nc21  179 to 180 °C
3  CN(N=Cc1ccc(C#N)cc1)C(=O)c1[nH]c2ccccc2c1-c1ccccc1  194 to 196 °C
4  Cc1cccc2c1N(CCN(C(C)C)C(C)C)C(=O)/C2=N/NC(N)=O  194 to 195 °C

* * *

Entries annotated with measured melting point
measured-parameter: melting point

> print(dat)
                                   compound  measured.parameter       reported
1  O=C(O)CC1c2ccccc2COc2ccccc21 (centres undefined)       melting point  114 to 115 °C
2  O=C(c1ccc(O)cc1)c1c(-c2ccccc2)oc2ccc([N+](=O)[O-])cc12       melting point         207 °C
3  CCOC(=O)N1CCC2(CC1)Oc1ccccc1C2n1cccc1 (centres undefined)       melting point  132 to 133 °C
4  O=C(O)c1ccc(N2C(=O)C3C4C=CC(C4)C3C2=O)cc1 (centres undefined)       melting point  224 to 228 °C
5  Cc1nc(C(F)F)c(C(=O)Nc2ccccc2-c2ccc(Cl)cc2)s1       melting point         144 °C
6  CN(C(=O)CN1C(=O)C2(COc3cc4c(cc32)CCO4)c2ccccc21)c1ccccc1 (centres undefined)       melting point  234 to 238 °C
7  Cc1cccc(NC(=S)NC2N=C(c3ccccc3F)c3ccccc3N(CC(=O)N3CC4CCC(CC4)C3)C2=O)c1 (racemic)       melting point  129 to 134 °C
8                 N#Cc1ccc(CCC(=O)C2CC2)cc1       melting point          76 °C
9  CC(O)(C(=O)Nc1ccc(C(=O)c2ccccc2)cc1F)C(F)(F)F (centres undefined)       melting point  138 to 139 °C

* * *

melting point values, listed per item
measured-parameter: melting point

> print(dat)
                                    molecule       reported
 1  CCOC(=O)C(C)(C)Oc1ccc(C=CC(=O)c2ccccc2)cc1    68 to 70 °C
 2  CC(O)CN1C(=O)N(CN2C(=O)N(CC(C)O)C(=O)C2(C)C)C(C)(C)C1=O (configuration not stated)  131 to 133 °C
 3  CC(=O)NC(C(=O)NC1c2cc(C#N)ccc2OC(C)(C)C1O)c1ccccc1 (configuration not stated)  133 to 145 °C
 4    O=C(Cc1ccc(CN2CCCC2)cc1)NCc1ccc(Br)cc1  107 to 109 °C
 5  Cc1c(C(F)(F)F)noc1NS(=O)(=O)c1cccc2ccccc12  154 to 155 °C
 6  CC(=O)N1CC2(CCN(C(=O)Nc3nnc(-c4ccccc4)s3)CC2)c2ccccc21         260 °C
 7      N#Cc1cc(-c2ccccc2)[nH]c1Sc1ccc(N)cc1  146 to 147 °C
 8  Cc1cc(OCCN2CCc3ccc(NS(C)(=O)=O)cc3CC2)ccc1NS(C)(=O)=O  173 to 174 °C
 9  Cc1c(-c2ccc(OC(F)F)c(OC3CC3)c2)[nH]c2cn[nH]c(=O)c12  245 to 246 °C
10              O=S(=O)(CC=C1CCCCC1)c1ccccc1          70 °C
11  O=C(c1ccccc1)c1ccc(-c2ccc(-c3ccc(-c4ccc(C(=O)c5ccccc5)s4)s3)s2)s1  307 to 310 °C
12        CC(=O)Nc1ccc(OCCCO[N+](=O)[O-])cc1    89 to 92 °C
13  CO[C@@H](Cc1ccc(OCCc2nc(-c3cc(C)cc(C)c3)oc2C)c2ccccc12)C(=O)O  197 to 198 °C
14         COc1ccc2c(c1)C(=O)C(=Cc1nccs1)CO2  130 to 132 °C
15  O=C(N[C@H](Cc1ccc(CC(F)(F)C(F)(F)F)cc1)[C@@H](O)c1cccc(Cl)c1)c1cccc2c(Cl)cccc12 (racemic)  216 to 217 °C
16  CC(C)(C)c1ccnc(C(=O)c2[nH]c3cc(Cl)ccc3c2CC(=O)O)c1  203 to 205 °C
17           NNc1nccc(-c2cccc(C(F)(F)F)c2)n1  103 to 106 °C

* * *

measured-parameter: melting point

> print(dat)
                                   compound       reported
1  CC(c1ccccn1)C(O)(Cn1cncn1)c1ccc(F)cc1F (centres undefined)  146 to 148 °C
2                 CC(C)(C)OC(=O)Nc1ncccc1Br  120 to 121 °C
3  COCCOCCC1CCCCCc2c1oc(=O)c(C(c1ccccc1)C1CC1)c2O (centres undefined)  129 to 133 °C
4  CC(=O)NC[C@H]1CN(c2ccc(C(=O)c3cnc4ccccn34)cc2)C(=O)O1  218 to 220 °C
5  CCCNC(=O)[C@H](C)C[C@H](O)[C@H](CC1CCCCC1)NC(=O)OC(C)(C)C  115 to 116 °C
6  CC(=O)NC1Cc2ccc([N+](=O)[O-])cc2C1 (centres undefined)  143 to 144 °C
7  CC1(C)C(=O)Oc2ccc3cc(C#N)c(Cn4cncn4)cc3c21         198 °C
8  C[C@@H](n1cnc2cc(-c3ccc(C(=N)NC#N)cc3)sc2c1=O)[C@](O)(Cn1cncn1)c1ccc(F)cc1F  275 to 278 °C
9  CCC(Oc1ccc(CCC(=O)c2ccc(-c3ccc(C(F)(F)F)cc3)s2)c(Cl)c1Cl)C(=O)O (centres undefined)  169 to 171 °C

* * *

# maps each entry to its melting point
measured-parameter: melting point

> print(dat)
                                    compound         reported
 1       CCn1nc(-c2ncc(N)nc2-c2ccccc2)ccc1=O    227 to 229 °C
 2  CC(C)C1(C)N=C(c2ncc(C=O)cc2C(=O)O)NC1=O (configuration not stated)    187 to 198 °C
 3  O=C(O[C@H]1OCCN(Cc2ccccc2)[C@H]1c1ccc(F)cc1)c1cc(C(F)(F)F)cc(C(F)(F)F)c1    102 to 103 °C
 4  O=C(CCc1ccccc1)N[C@H](Cc1ccc(C(F)(F)F)c(F)c1)[C@@H](O)c1ccc(F)cc1 (racemic)    126 to 127 °C
 5  Cc1ccc(Cc2cnc(NCCCNc3cccc(C)n3)[nH]c2=O)cn1    113 to 120 °C
 6              O=C1CSC(=S)N1N=c1sc2ccccc2s1    295 to 300 °C
 7  COc1cc(Nc2c(C#N)cnc3cc(-c4ccccc4)sc23)c(Cl)cc1Cl    274 to 276 °C
 8  COc1cccc(CC(=O)O)c1OCCCc1cn(-c2ncc(C(F)(F)F)cc2Cl)nc1C(C)C      96 to 97 °C
 9                  CC(C)C(=O)NCC(=O)c1ccco1      78 to 80 °C
10               Sc1nnc(-c2ccc3[nH]ncc3c2)o1    283 to 284 °C
11          O=C(O)c1ccc(NCCOc2ccc(Br)cc2)cc1    190 to 192 °C
12      Cc1ccc(O)c(C(=O)Nc2cc(Cl)cc(Cl)c2)c1    216 to 217 °C
13               CCOC(=O)c1ccc2c(S)cccn2c1=O    111 to 113 °C
14      Cc1cc(C(F)(F)F)n2nc(SCc3ccccc3)nc2n1  83.5 to 84.5 °C
15  CNc1nc(-c2cccc(NC(=O)c3ccccc3)c2)c2cc(O)c(OC)cc2n1    145 to 147 °C
16  CCN(CC)C(=O)Oc1cc(C(C)C)ccc1C1(O)C(=O)c2ccccc2C1=O    103 to 106 °C
17  CC(=O)OC1CSC(Oc2cccc(-c3ccncc3)c2)C(OC(C)=O)C1OC(C)=O (configuration not stated)           112 °C
